assayExplanation: Intrinsic clearance in rat liver microsomes
measureName: microsomal CLint

Memo: CCNc1ncc2c(n1)N(C)CCN(c1cccc(-c3nnc(C)o3)c1)C2=O , reported microsomal CLint: < 5 µL/min/mg

---

The compounds listed here are annotated with their inhibition at 1 µM.
targetDesc: CYP2D6 (Homo sapiens, UniProt P10635)
Sequence (P10635 whole entry): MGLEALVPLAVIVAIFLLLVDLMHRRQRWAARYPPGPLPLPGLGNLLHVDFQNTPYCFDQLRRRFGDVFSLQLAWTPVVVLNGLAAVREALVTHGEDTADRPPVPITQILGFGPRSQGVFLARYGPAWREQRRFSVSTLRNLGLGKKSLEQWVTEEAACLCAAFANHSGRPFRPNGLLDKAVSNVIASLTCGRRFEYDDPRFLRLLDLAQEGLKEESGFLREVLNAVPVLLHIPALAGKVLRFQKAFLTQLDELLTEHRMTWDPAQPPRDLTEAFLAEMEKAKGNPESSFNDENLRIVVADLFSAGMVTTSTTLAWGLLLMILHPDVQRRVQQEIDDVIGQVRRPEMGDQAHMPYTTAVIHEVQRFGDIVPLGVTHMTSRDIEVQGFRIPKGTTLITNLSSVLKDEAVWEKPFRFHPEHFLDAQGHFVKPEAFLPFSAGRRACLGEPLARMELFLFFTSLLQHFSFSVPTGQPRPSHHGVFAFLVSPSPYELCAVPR
assayExplanation: Inhibition of human CYP2D6 at 1 uM relative to control
Format: ADME

Examples from the recorded data:
CCNc1ncc2c(n1)N(C)CCN(c1cccc(-c3nnc(C)o3)c1)C2=O :: < 50%
CNCC[C@H](Oc1cccc(N2CCN(C)c3nc(N)ncc3C2=O)c1)c1cccs1 :: < 50%

Could you now look at the following compound, please?
Memo: CNCC[C@H](Oc1cccc(N2CCN(C)c3ncccc3C2=O)c1)c1cccs1 , reported inhibition at 1 µM: < 50%

---

The compounds listed here are annotated with their inhibition at 1 µM.
targetDesc: CYP1A2 (Homo sapiens, UniProt P05177)
Sequence (P05177 whole entry): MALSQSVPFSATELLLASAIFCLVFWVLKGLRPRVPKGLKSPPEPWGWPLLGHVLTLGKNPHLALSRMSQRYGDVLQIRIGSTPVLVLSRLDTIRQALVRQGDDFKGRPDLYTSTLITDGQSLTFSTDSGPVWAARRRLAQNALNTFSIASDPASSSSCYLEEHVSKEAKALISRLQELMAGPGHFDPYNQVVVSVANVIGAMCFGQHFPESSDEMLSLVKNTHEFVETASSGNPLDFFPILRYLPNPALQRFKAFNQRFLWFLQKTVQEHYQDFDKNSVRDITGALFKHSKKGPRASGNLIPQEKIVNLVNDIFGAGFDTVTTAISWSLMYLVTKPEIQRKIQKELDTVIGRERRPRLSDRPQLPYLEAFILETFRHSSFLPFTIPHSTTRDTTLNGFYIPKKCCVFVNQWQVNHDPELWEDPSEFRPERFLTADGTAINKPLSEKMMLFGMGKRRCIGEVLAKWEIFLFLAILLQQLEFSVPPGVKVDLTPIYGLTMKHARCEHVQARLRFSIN
assayExplanation: Inhibition of human CYP1A2 at 1 uM relative to control
Type: ADME

Examples from the recorded data:
CNCC[C@H](Oc1cccc(N2CCN(C)c3ncccc3C2=O)c1)c1cccs1 :: < 50%
CNCC[C@H](Oc1cccc(N2CCN(C)c3nc(N)ncc3C2=O)c1)c1cccs1 :: < 50%

Memo: CCNc1ncc2c(n1)N(C)CCN(c1cccc(-c3nnc(C)o3)c1)C2=O , reported inhibition at 1 µM: < 50%

---

targetDesc: Voltage-dependent calcium channel subunit alpha-2/delta-1 (Homo sapiens)
assayExplanation: Displacement of [3H]-gabapentin from human Cav alpha2delta1 expressed in CHO-K1 cell membranes incubated for 60 mins by scintillation counting method
Exam item: assign 1 to entries whose Ki is below 600 nM and 0 to entries at or above 600 nM. Note that a value of exactly 600 nM receives 0.

Solved entries (count: 5):
CCNc1ncc2c(n1)N(C)CCN(c1cccc(-c3nnc(C)o3)c1)C2 :: 0
CNCC[C@H](Oc1cccc(N2CCN(C)CCC2=O)c1)c1cccs1 :: 0
CC(C)C[C@H](CN)CC(=O)O :: 1
CNc1ncc2c(n1)N(C)CCN(c1cccc(-c3nnc(C)o3)c1)C2=O :: 1
CCNc1ncc2c(n1)N1CCC[C@@H]1CN(c1cccc(OC(CCNC)c3ccccc3)c1)C2=O (stereo not given in full) :: 1

-- ask Is Ki of COCCNc1ncc2c(n1)N(C)CCN(c1cccc(-c3nnc(C)o3)c1)C2=O strictly below 600 nM?
-- reply 0

-- ask Is Ki of CCNc1ncc2c(n1)N1CCC[C@H]1CN(c1cccc(-c3noc(C)n3)c1)C2=O strictly below 600 nM?
-- reply 1

-- ask Is Ki of CNCCC(Oc1cccc(N2CCN(C)c3cccnc3C2=O)c1)c1cccs1 (stereo not given) strictly below 600 nM?
-- reply 0

-- ask Is Ki of CSc1ncc2c(n1)N(C)CCN(c1cccc(-c3nnc(C)o3)c1)C2=O strictly below 600 nM?
-- reply 0

---

The compounds listed here are annotated with their inhibition at 1 µM.
targetDesc: CYP3A4 (Homo sapiens)
Sequence (P08684 whole entry): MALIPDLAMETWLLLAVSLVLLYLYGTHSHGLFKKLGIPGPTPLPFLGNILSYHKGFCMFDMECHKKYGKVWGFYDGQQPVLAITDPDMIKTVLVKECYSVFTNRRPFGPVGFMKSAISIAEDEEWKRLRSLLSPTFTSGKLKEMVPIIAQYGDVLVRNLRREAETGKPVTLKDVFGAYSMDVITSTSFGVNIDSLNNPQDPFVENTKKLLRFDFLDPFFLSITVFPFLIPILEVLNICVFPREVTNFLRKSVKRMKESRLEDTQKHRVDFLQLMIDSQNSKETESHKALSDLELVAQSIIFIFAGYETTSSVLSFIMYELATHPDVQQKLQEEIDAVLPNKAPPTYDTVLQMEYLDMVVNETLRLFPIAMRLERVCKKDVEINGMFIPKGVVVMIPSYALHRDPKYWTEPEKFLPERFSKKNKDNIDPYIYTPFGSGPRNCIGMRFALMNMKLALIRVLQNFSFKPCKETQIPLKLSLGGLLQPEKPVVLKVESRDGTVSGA
assayExplanation: Inhibition of human CYP3A4 at 1 uM relative to control
Type: ADME

Examples from the recorded data:
CCNc1ncc2c(n1)N(C)CCN(c1cccc(-c3nnc(C)o3)c1)C2=O :: < 50%
CNCC[C@H](Oc1cccc(N2CCN(C)c3nc(N)ncc3C2=O)c1)c1cccs1 :: < 50%

Could you now look at the following compound, please?
Memo: CNCC[C@H](Oc1cccc(N2CCN(C)c3ncccc3C2=O)c1)c1cccs1 , reported inhibition at 1 µM: < 50%

---

targetDesc: Voltage-dependent calcium channel subunit alpha-2/delta-2 (Homo sapiens, UniProt Q9NY47)
Sequence (Q9NY47 19-1001 limits assumed): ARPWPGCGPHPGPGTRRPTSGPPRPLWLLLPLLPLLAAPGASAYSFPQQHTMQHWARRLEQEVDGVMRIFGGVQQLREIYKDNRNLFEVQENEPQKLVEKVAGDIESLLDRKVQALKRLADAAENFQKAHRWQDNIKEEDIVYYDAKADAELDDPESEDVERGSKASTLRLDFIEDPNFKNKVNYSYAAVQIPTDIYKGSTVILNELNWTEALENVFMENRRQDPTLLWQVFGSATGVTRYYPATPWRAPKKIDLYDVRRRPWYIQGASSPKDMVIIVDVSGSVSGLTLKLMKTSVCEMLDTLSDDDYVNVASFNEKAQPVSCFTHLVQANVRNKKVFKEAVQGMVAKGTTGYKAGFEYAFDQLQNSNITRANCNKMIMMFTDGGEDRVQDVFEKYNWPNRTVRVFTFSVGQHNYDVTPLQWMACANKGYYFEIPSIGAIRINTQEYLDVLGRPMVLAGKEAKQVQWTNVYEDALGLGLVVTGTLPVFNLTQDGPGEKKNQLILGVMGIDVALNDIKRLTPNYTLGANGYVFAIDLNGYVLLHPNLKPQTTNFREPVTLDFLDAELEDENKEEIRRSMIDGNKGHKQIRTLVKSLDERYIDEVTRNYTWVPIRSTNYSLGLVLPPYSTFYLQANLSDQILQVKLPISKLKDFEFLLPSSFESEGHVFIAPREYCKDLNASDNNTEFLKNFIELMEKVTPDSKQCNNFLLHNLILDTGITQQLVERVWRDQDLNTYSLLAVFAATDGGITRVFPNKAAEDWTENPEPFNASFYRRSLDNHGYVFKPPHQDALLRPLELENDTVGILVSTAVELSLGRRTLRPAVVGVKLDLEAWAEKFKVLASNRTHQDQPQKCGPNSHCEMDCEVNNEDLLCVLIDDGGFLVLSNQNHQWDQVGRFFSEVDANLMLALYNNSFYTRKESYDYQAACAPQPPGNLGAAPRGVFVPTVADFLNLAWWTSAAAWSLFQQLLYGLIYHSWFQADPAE
Sequence (Q9NY47 1002-1150 limits assumed): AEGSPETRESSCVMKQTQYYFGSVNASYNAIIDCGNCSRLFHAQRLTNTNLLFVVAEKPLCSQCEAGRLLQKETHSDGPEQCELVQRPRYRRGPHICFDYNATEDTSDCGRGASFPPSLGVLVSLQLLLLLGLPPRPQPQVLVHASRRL
assayExplanation: Displacement of [3H]-gabapentin from human Cav alpha2delta2 expressed in HEK293 cell membranes incubated for 60 mins by scintillation counting method
measureName: pKi
Expect pKi as a plain number equal to -log10 of the molar concentration.

Examples from the recorded data:
CCNc1ncc2c(n1)N1CCC[C@H]1CN(c1cccc(-c3noc(C)n3)c1)C2=O :: 5.67
CCNc1ncc2c(n1)N(C)CCN(c1cccc(-c3nnc(C)o3)c1)C2=O :: 5.53

Could you now look at the following molecule, please?
Memo: CC(C)C[C@H](CN)CC(=O)O , reported pKi: 7.00

---

targetDesc: Voltage-dependent calcium channel subunit alpha-2/delta-1 (Homo sapiens, UniProt P54289)
Sequence (P54289 25-956 limits assumed): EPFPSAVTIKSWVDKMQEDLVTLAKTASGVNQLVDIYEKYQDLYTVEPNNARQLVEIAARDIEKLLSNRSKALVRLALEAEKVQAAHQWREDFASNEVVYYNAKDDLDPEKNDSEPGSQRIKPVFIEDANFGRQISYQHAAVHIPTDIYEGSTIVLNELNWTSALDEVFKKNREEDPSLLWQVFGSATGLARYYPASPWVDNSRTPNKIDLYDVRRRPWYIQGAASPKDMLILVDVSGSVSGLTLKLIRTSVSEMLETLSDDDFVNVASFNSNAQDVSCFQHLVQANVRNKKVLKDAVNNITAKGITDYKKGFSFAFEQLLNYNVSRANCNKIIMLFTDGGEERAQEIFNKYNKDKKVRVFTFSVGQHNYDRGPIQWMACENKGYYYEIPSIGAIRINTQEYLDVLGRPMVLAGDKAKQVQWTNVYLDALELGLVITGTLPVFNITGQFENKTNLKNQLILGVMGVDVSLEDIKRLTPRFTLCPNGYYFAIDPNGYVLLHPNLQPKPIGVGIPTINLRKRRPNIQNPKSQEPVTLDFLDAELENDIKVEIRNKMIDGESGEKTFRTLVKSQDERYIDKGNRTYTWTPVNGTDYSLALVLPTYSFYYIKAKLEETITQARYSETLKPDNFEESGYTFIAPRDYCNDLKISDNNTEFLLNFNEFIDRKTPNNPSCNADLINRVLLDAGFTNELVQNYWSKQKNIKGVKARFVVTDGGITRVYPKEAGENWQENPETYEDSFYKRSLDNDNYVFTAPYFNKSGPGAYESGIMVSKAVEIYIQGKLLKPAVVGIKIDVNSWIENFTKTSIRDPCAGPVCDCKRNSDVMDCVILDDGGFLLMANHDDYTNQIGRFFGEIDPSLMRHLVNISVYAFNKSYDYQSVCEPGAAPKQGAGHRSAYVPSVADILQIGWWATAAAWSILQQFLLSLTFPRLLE
Sequence (P54289 957-1103 limits assumed): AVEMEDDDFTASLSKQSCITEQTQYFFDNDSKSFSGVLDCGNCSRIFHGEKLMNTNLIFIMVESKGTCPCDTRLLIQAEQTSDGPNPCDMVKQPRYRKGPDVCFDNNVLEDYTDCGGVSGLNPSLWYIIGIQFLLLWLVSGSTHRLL
assayExplanation: Displacement of [3H]-gabapentin from human Cav alpha2delta1 expressed in CHO-K1 cell membranes incubated for 60 mins by scintillation counting method
The molecules listed here are annotated with their pKi.
Expect pKi as a plain number equal to -log10 of the molar concentration.

CCNc1ncc2c(n1)N(C)CCN(c1cccc(-c3nnc(C)o3)c1)C2=O :: 7.09
CCNc1ncc2c(n1)N(CC)CCN(c1cccc(-c3nnc(C)o3)c1)C2=O :: 6.75
CCNc1ncc2c(n1)N(C)CCN(c1ccccc1OC(CCNC)c1ccccc1)C2=O (centres undefined) :: 5.46
CNCCC(Oc1cccc(N2CCN(C)c3ccccc3C2=O)c1)c1cccs1 (centres undefined) :: 6.08
CNCCC(Oc1cccc(N2CCN(C)c3cnccc3C2=O)c1)c1cccs1 (centres undefined) :: 6.68

Could you now look at the following molecule, please?
Memo: CCNc1ncc2c(n1)N1CCC[C@H]1CN(c1cccc(OC(CCNC)c3ccccc3)c1)C2=O (some centres undefined) , reported pKi: 6.47

---

targetDesc: CYP2C19 (Homo sapiens)
Sequence (P33261 whole entry): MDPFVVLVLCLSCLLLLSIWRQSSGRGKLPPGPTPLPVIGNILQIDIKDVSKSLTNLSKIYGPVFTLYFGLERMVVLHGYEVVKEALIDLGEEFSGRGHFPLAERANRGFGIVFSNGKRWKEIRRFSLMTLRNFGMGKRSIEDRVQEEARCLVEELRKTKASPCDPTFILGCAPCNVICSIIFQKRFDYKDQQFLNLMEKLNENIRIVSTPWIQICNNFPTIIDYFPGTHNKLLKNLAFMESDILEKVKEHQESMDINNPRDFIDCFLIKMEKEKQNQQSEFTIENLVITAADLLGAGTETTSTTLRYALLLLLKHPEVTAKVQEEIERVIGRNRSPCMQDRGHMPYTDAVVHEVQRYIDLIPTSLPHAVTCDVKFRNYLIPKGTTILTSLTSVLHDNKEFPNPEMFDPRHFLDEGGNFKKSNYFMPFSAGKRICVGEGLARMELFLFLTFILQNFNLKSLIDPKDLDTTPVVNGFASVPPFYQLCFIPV
assayExplanation: Inhibition of human CYP2C19 at 1 uM relative to control
Format: ADME
measureName: inhibition at 1 µM

Examples from the recorded data:
CCNc1ncc2c(n1)N(C)CCN(c1cccc(-c3nnc(C)o3)c1)C2=O :: < 50%
CNCC[C@H](Oc1cccc(N2CCN(C)c3ncccc3C2=O)c1)c1cccs1 :: < 50%

Could you now look at the following compound, please?
The measured inhibition at 1 µM that CNCC[C@H](Oc1cccc(N2CCN(C)c3nc(N)ncc3C2=O)c1)c1cccs1 showed for CYP2C19 (Homo sapiens) is < 50%

---

Lab note: Ki readings collected with Sodium-dependent noradrenaline transporter (Homo sapiens, UniProt P23975) for the following compounds.
Sequence (P23975 whole entry): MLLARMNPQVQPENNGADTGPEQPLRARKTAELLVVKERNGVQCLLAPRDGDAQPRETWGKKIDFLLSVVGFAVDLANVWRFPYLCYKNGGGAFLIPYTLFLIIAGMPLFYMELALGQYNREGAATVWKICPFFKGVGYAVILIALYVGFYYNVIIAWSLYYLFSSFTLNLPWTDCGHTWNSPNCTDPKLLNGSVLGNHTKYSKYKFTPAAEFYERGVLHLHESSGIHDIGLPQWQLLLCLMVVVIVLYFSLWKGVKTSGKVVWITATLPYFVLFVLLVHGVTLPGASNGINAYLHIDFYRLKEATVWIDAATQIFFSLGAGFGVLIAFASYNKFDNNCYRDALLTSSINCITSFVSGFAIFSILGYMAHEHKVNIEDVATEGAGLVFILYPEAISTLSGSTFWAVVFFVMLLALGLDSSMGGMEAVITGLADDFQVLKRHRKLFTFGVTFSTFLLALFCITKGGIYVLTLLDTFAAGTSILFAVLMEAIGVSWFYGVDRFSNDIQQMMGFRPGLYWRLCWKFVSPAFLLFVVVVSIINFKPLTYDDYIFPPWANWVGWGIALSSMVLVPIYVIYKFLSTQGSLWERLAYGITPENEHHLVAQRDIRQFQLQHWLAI

CCNc1ncc(C(=O)N(C)c2cccc(OC(CCNC)c3ccccc3)c2)cn1 (stereo not drawn) :: > 10 µM
CCN(C)c1ncc2c(n1)N(C)CCN(c1cccc(-c3nnc(C)o3)c1)C2=O :: > 10 µM

Could you now look at the following compound, please?
Memo: CC(C)C[C@H](CN)CC(=O)O , reported Ki: > 10 µM

---

targetDesc: Sodium-dependent noradrenaline transporter (Homo sapiens, UniProt P23975)
assayExplanation: Inhibition of human NET expressed in HEK293 cells assessed as reduction in ASP+ uptake incubated for 20 mins before ASP+ addition and measured after 90 mins by scintillation counting method
The molecules listed here are annotated with their IC50.

Examples from the recorded data:
CCNc1ncc2c(n1)N(C)CCN(c1cccc(-c3nnc(C)o3)c1)C2=O :: > 10 µM
CCNc1ncc2c(n1)N(C)CCN(c1ccccc1COC(CCNC)c1ccccc1)C2=O (configuration not stated) :: > 10 µM
CCNc1ncc2c(n1)N(C)CCN(c1ccccc1OC(CCNC)c1ccccc1)C2=O (configuration not stated) :: > 10 µM
CCNc1ncc2c(n1)N1CCC[C@H]1CN(c1cccc(-c3noc(C)n3)c1)C2=O :: > 10 µM
CCNc1ncc(C(=O)N(C)c2cccc(OC(CCNC)c3ccccc3)c2)cn1 (configuration not stated) :: > 10 µM
CCNc1ncc2c(n1)N(CC)CCN(c1cccc(-c3nnc(C)o3)c1)C2=O :: > 10 µM

Memo: CNc1ncc2c(n1)N(C)CCN(c1cccc(-c3nnc(C)o3)c1)C2=O , reported IC50: > 10 µM

Memo: COCCNc1ncc2c(n1)N(C)CCN(c1cccc(-c3nnc(C)o3)c1)C2=O , reported IC50: > 10 µM

Memo: CSc1ncc2c(n1)N(C)CCN(c1cccc(-c3nnc(C)o3)c1)C2=O , reported IC50: > 10 µM

Memo: CC(C)C[C@H](CN)CC(=O)O , reported IC50: > 10 µM

Memo: CCN(C)c1ncc2c(n1)N(C)CCN(c1cccc(-c3nnc(C)o3)c1)C2=O , reported IC50: > 10 µM

Memo: CCNc1ncc2c(n1)N(C)CCN(c1cccc(-c3nnc(C)o3)c1)C2 , reported IC50: > 10 µM
